Reference source: PubChem BioAssay AID1851

- target_entity: Cytochrome P450 1A2 (Homo sapiens) (UniProt P05177)
- Sequence (P05177 whole entry, looked up): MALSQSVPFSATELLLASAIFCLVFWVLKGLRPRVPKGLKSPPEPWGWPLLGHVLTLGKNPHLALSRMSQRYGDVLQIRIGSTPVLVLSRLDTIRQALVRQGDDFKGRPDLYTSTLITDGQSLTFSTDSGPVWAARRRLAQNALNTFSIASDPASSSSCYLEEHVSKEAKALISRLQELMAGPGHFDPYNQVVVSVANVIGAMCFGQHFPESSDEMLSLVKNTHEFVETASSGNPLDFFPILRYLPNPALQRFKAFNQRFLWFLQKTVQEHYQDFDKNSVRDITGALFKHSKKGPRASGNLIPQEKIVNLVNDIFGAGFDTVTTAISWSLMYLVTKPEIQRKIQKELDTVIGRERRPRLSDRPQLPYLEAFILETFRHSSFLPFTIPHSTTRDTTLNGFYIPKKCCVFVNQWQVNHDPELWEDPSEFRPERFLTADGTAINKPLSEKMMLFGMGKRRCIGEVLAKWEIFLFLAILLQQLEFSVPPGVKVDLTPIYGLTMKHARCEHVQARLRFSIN
- assay_info: Cytochrome panel assay with activity outcomes; further: on the % scale 0 is the no-effect control and ±100 the full control effect
- experimental_conditions: recombinant CYP, pro-luciferin dealkylation, luminescence, p450-cyp1a2; series mostly up to 57.1 µM
- Description: The P450 gene superfamily is involved in the metabolism and clearance of xenobiotics. This assay used various human CYP P450 isozymes to measure the dealkylation of various pro-luciferin substrates to luciferin. The luciferin is then measured by luminescence after the addition of a luciferase detection reagent. […] Inhibitors and some substrates limit the production of luciferin, and decrease measured luminescence. […] 8, Detection, 1 sec, ViewLux luminescent read […]
The campaign covered roughly 16,000 compounds. About 5,700 (36%) were called active. Roughly 24% stayed inconclusive and do not appear here. The list shows a part of the results.
property_measured: activity, negative = inhibition

Below: 10 compounds and their reported activity, negative = inhibition.
# compound, target_entity, assay_value
records = [
    ("[N-]=[N+]=CC(=O)CC[C@H](N)C(=O)O", "Cytochrome P450 1A2 (Homo sapiens) (UniProt P05177)", "-10.9% [at 11.4 µM] (inactive)"),
    ("O=c1[nH]cnc2[nH]cc(CN3CCCCC3)c12", "Cytochrome P450 1A2 (Homo sapiens) (UniProt P05177)", "-11.6% [at 11.4 µM] (inactive)"),
    ("Nc1ccc(S(=O)(=O)c2ccc(NCN3C(=O)NC(=O)C(=O)C3=O)cc2)cc1", "Cytochrome P450 1A2 (Homo sapiens) (UniProt P05177)", "-12.8% [at 11.4 µM] (inactive)"),
    ("O=C1C2CCN(CC2)C1(CO)CO", "Cytochrome P450 1A2 (Homo sapiens) (UniProt P05177)", "-15.4% [at 11.4 µM] (inactive)"),
    ("O=[As](O)(O)c1ccc(N=Nc2ccc([As](=O)(O)O)cc2)cc1", "Cytochrome P450 1A2 (Homo sapiens) (UniProt P05177)", "-13.9% [at 11.4 µM] (inactive)"),
    ("O=C(C[C@H](c1ccccc1)c1c(O)c2ccccc2oc1=O)c1ccccc1", "Cytochrome P450 1A2 (Homo sapiens) (UniProt P05177)", "-12.6% [at 2.29 µM] (inactive)"),
    ("NC(N)=NCCN=C(N)N", "Cytochrome P450 1A2 (Homo sapiens) (UniProt P05177)", "-17.5% [at 11.4 µM] (inactive)"),
    ("NC[C@@H](O)CSP(=O)(O)O", "Cytochrome P450 1A2 (Homo sapiens) (UniProt P05177)", "-2.54% [at 11.4 µM] (inactive)"),
    ("c1cncc(CNCCN2CCNCC2)c1", "Cytochrome P450 1A2 (Homo sapiens) (UniProt P05177)", "6.05% [at 11.4 µM] (inactive)"),
    ("CCC1=C(C[C@H]2NCCc3cc(OC)c(OC)cc32)C[C@H]2c3ccccc3CCN2C1", "Cytochrome P450 1A2 (Homo sapiens) (UniProt P05177)", "-6.07% [at 11.4 µM] (inactive)"),
]

Exercise: Query activity, negative = inhibition for C[N+]1(C)[C@@H]2CC(OC(=O)[C@@H](CO)c3ccccc3)C[C@@H]1[C@H]1O[C@H]12 (stereo not given in full)
Key: -22.8% [at 11.4 µM] (inactive)

Exercise: Given O=C(O)[C@@H]1[C@H](C(=O)O)[C@]2(Cl)C(Cl)=C(Cl)[C@@]1(Cl)C2(Cl)Cl , respond with its activity, negative = inhibition.
Key: -14.5% [at 11.4 µM] (inactive)

Exercise: Look up and state reported activity, negative = inhibition for O=C(O)c1cc(N=Nc2ccc([As](=O)(O)O)cc2)ccc1O
Key: -9.91% [at 11.4 µM] (inactive)

Exercise: Provide activity, negative = inhibition value for the following compound: CCN(CC)CCn1ncc2c(N)ncnc21
Key: -6.04% [at 11.4 µM] (inactive)
